Biological target: human mineralocorticoid receptor (hMR) (Homo sapiens, UniProt P08235)
Assay: GAL4-hMR-LBD luciferase reporter assay in HEK293 cells with 1 nM aldosterone (Test Example 1)
Conditions: concentration showing Imax/2; HEK293, GAL4-hMR-LBD, 1 nM aldosterone, overnight; read-out: ICmax50
pIC50: −log10 of the molar value.
Readout: pIC50

{"Molecule": "Cc1c(C(=O)Nc2ccc(S(C)(=O)=O)cc2)cc(C[C@H](C)O)n1-c1ccc(F)cc1C(F)(F)F [Example 5]", "Assayed system": "human mineralocorticoid receptor (hMR) (Homo sapiens, UniProt P08235)", "Limit sign": "=", "Result value": 8.41}
{"Molecule": "Cc1c(C(=O)Nc2ccc(S(C)(=O)=O)cc2)cc(CCO)n1-c1ccc(Cl)cc1C(F)(F)F (single isomer, unassigned) [Example 1 - isomer A]", "Assayed system": "human mineralocorticoid receptor (hMR) (Homo sapiens, UniProt P08235)", "Limit sign": "=", "Result value": 8.43}
{"Molecule": "Cc1c(C(=O)Nc2ccc(S(C)(=O)=O)cc2)cc(C[C@H](C)O)n1-c1ccc(Cl)cc1-c1ccc(F)cc1 [Example 50]", "Assayed system": "human mineralocorticoid receptor (hMR) (Homo sapiens, UniProt P08235)", "Limit sign": "=", "Result value": 8.57}
{"Molecule": "Cc1c(C(=O)Nc2ccc(S(C)(=O)=O)cc2)cc(CC(=O)N(C)C)n1-c1ccc(Cl)cc1C(F)(F)F", "Assayed system": "human mineralocorticoid receptor (hMR) (Homo sapiens, UniProt P08235)", "Limit sign": "=", "Result value": 8.26}
{"Molecule": "Cc1cc(NC(=O)c2cc(C[C@H](C)O)n(-c3ccc(F)cc3OC(F)F)c2C)ccc1S(C)(=O)=O [Example 22]", "Assayed system": "human mineralocorticoid receptor (hMR) (Homo sapiens, UniProt P08235)", "Limit sign": "=", "Result value": 8.04}
{"Molecule": "Cc1c(C(=O)Nc2ccc(S(C)(=O)=O)cc2)cc(C[C@H](C)O)n1-c1ccc(F)cc1C(F)(F)F (single isomer, unassigned) [Example 5 - isomer B]", "Assayed system": "human mineralocorticoid receptor (hMR) (Homo sapiens, UniProt P08235)", "Limit sign": "<", "Result value": 6.00}
{"Molecule": "Cc1cc(Cl)ccc1-n1c(CCF)cc(C(=O)Nc2ccc(S(C)(=O)=O)cc2)c1C (single isomer, unassigned) [Example 51 - isomer A]", "Assayed system": "human mineralocorticoid receptor (hMR) (Homo sapiens, UniProt P08235)", "Limit sign": "=", "Result value": 7.96}
{"Molecule": "Cc1c(C(=O)Nc2ccc(S(C)(=O)=O)cc2)cc(C[C@H](C)O)n1-c1ccc(Cl)cc1-c1ccc(F)cc1 (single isomer, unassigned) [Example 50 - isomer A]", "Assayed system": "human mineralocorticoid receptor (hMR) (Homo sapiens, UniProt P08235)", "Limit sign": "<", "Result value": 6.00}
{"Molecule": "Cc1c(C(=O)Nc2ccc(S(N)(=O)=O)c(Cl)c2)cc(C[C@H](C)O)n1-c1ccc(F)cc1Cl (single isomer, unassigned) [Example 49 - isomer B]", "Assayed system": "human mineralocorticoid receptor (hMR) (Homo sapiens, UniProt P08235)", "Limit sign": "=", "Result value": 8.35}
{"Molecule": "Cc1c(C(=O)Nc2ccc(S(C)(=O)=O)cc2)cc(CCO)n1-c1ccc(Cl)cc1C(F)(F)F (single isomer, unassigned) [Example 1 - isomer B]", "Assayed system": "human mineralocorticoid receptor (hMR) (Homo sapiens, UniProt P08235)", "Limit sign": "<", "Result value": 6.00}
{"Molecule": "Cc1c(C(=O)Nc2ccc(S(C)(=O)=O)cc2)cc(C[C@H](C)O)n1-c1ccc(Cl)cc1C(F)(F)F [Example 6]", "Assayed system": "human mineralocorticoid receptor (hMR) (Homo sapiens, UniProt P08235)", "Limit sign": "=", "Result value": 8.21}
{"Molecule": "Cc1c(C(=O)Nc2ccc(S(C)(=O)=O)cc2)cc(CCF)n1-c1ccc(F)cc1OC(F)F (single isomer, unassigned) [Example 54 - isomer B]", "Assayed system": "human mineralocorticoid receptor (hMR) (Homo sapiens, UniProt P08235)", "Limit sign": "<", "Result value": 6.00}

====

Target: UniProt P08235
Experiment: GAL4-hMR-LBD luciferase reporter assay in HEK293 cells with 1 nM aldosterone (Test Example 1)
Settings: concentration showing Imax/2; HEK293, GAL4-hMR-LBD, 1 nM aldosterone, overnight; read-out: ICmax50
Each item that follows carries a reported IC50.

{"Molecule": "Cc1c(C(=O)Nc2ccc(S(C)(=O)=O)cc2)cc(C[C@H](C)O)n1-c1ccc(Cl)cc1Oc1ccc(F)cc1 (single isomer, unassigned) [Example 45 - isomer B]", "IC50": "> 1000 nM"}
{"Molecule": "Cc1c(C(=O)Nc2ccc(S(C)(=O)=O)cc2)cc(C[C@H](C)O)n1-c1ccc(F)cc1Cl (single isomer, unassigned) [Example 40 - isomer B]", "IC50": "> 1000 nM"}
{"Molecule": "Cc1c(C(=O)Nc2ccc(S(C)(=O)=O)cc2)cc(C[C@H](C)O)n1-c1ccc(Cl)cc1Cl (single isomer, unassigned) [Example 43 - isomer B]", "IC50": "> 1000 nM"}

====

Experiment: Plasma concentration after intragastric administration to cynomolgus monkey (Test Example 2)
Type: in vivo
Conditions: male cynomolgus monkey, 3 mg/kg intragastric in 0.5% MC, plasma, LC-MS/MS, noncompartment model
Readout: AUC, area under the plasma concentration versus time curve

{"Molecule": "Cc1c(C(=O)Nc2ccc(S(C)(=O)=O)cc2)cc(CCO)n1-c1ccc(Cl)cc1C(F)(F)F (single isomer, unassigned) [Example 1 - isomer A]", "Result value": "14110 ng·h/mL"}
{"Molecule": "Cc1c(C(=O)Nc2ccc(S(C)(=O)=O)cc2)cc(C[C@H](C)O)n1-c1ccc(F)cc1OC(F)(F)F (single isomer, unassigned) [Example 16 - isomer A]", "Result value": "13490 ng·h/mL"}
{"Molecule": "Cc1c(C(=O)Nc2ccc(S(C)(=O)=O)cc2)cc(C[C@H](C)O)n1-c1ccc(Cl)cc1Cl (single isomer, unassigned) [Example 43 - isomer A]", "Result value": "14820 ng·h/mL"}
{"Molecule": "Cc1c(C(=O)Nc2ccc(S(C)(=O)=O)cc2)cc(C[C@H](C)O)n1-c1ccc(F)cc1C(F)(F)F (single isomer, unassigned) [Example 5 - isomer A]", "Result value": "31310 ng·h/mL"}
{"Molecule": "Cc1cc(C(=O)Nc2ccc(S(C)(=O)=O)cc2)c(C)n1-c1ccccc1C(F)(F)F [Reference compound A, reference compound]", "Result value": "30 ng·h/mL"}
{"Molecule": "Cc1c(C(=O)Nc2ccc(S(C)(=O)=O)cc2)cc(C[C@H](C)O)n1-c1ccc(Cl)cc1OC(F)F (single isomer, unassigned) [Example 11 - isomer A]", "Result value": "24810 ng·h/mL"}
{"Molecule": "Cc1c(C(=O)Nc2ccc(S(C)(=O)=O)cc2)cc(C[C@H](C)O)n1-c1ccc(Cl)cc1OC(F)(F)F (single isomer, unassigned) [Example 42 - isomer B]", "Result value": "23860 ng·h/mL"}
{"Molecule": "Cc1c(C(=O)Nc2ccc(S(C)(=O)=O)cc2)cc(CCO)n1-c1ccc(F)cc1C(F)(F)F", "Result value": "8060 ng·h/mL"}
{"Molecule": "Cc1c(C(=O)Nc2ccc(S(C)(=O)=O)cc2)cc(CCF)n1-c1ccc(F)cc1OC(F)F (single isomer, unassigned) [Example 54 - isomer A]", "Result value": "11410 ng·h/mL"}
{"Molecule": "CCc1c(C(=O)Nc2ccc(S(C)(=O)=O)cc2)cc(C[C@H](C)O)n1-c1ccc(F)cc1Cl (single isomer, unassigned) [Example 44 - isomer B]", "Result value": "16920 ng·h/mL"}

====

Each item that follows carries a reported pIC50.
Biological target: human mineralocorticoid receptor (hMR) (Homo sapiens, UniProt P08235)
Sequence (P08235 726-964 limits assumed): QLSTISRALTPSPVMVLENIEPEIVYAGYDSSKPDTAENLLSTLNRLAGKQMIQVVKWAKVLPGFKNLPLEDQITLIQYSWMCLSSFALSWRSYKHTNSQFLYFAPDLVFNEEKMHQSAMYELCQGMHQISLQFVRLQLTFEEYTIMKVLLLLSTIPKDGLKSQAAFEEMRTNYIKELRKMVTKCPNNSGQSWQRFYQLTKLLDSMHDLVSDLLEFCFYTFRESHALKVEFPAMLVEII
Assay: GAL4-hMR-LBD luciferase reporter assay in HEK293 cells with 1 nM aldosterone (Test Example 1)
Conditions: concentration showing Imax/2; HEK293, GAL4-hMR-LBD, 1 nM aldosterone, overnight; read-out: ICmax50
Procedure: A plasmid pM-hMR-LBD expressing GAL4-hMR receptor, which has a ligand binding domain (LBD, corresponding to approximately 308 amino acids at the carboxy terminus) of human mineralocorticoid receptor (hMR, NM_000901) bonded to a DNA binding domain of yeast transcription factor GAL4 (corresponding to 147 amino acids at the amino terminus), was prepared. […]
pIC50: −log10 of the molar value.
Readout: pIC50

{"Molecule": "Cc1c(C(=O)Nc2ccc(S(C)(=O)=O)cc2)cc(C[C@H](C)O)n1-c1ccc(F)cc1OC(F)(F)F (single isomer, unassigned) [Example 16 - isomer B]", "Assayed system": "human mineralocorticoid receptor (hMR) (Homo sapiens, UniProt P08235)", "Readout": "pIC50", "Limit sign": "<", "Result value": 6.00}
{"Molecule": "Cc1c(C(=O)Nc2ccc(S(C)(=O)=O)cc2)cc(C[C@H](C)O)n1-c1ccc(Cl)cc1OC(F)(F)F (single isomer, unassigned) [Example 42 - isomer B]", "Assayed system": "human mineralocorticoid receptor (hMR) (Homo sapiens, UniProt P08235)", "Readout": "pIC50", "Limit sign": "=", "Result value": 8.57}
{"Molecule": "Cc1c(C(=O)Nc2ccc(S(C)(=O)=O)cc2)cc(C[C@H](C)O)n1-c1ccc(Cl)cc1Cl (single isomer, unassigned) [Example 43 - isomer A]", "Assayed system": "human mineralocorticoid receptor (hMR) (Homo sapiens, UniProt P08235)", "Readout": "pIC50", "Limit sign": "=", "Result value": 8.26}
{"Molecule": "Cc1c(C(=O)Nc2ccc(S(C)(=O)=O)cc2)cc(CCO)n1-c1ccc(F)cc1Cl (single isomer, unassigned) [Example 3 - isomer B]", "Assayed system": "human mineralocorticoid receptor (hMR) (Homo sapiens, UniProt P08235)", "Readout": "pIC50", "Limit sign": "<", "Result value": 6.00}
{"Molecule": "Cc1c(C(=O)Nc2ccc(S(C)(=O)=O)cc2)cc(C[C@H](C)O)n1-c1ccc(F)cc1OC(F)(F)F (single isomer, unassigned) [Example 16 - isomer A]", "Assayed system": "human mineralocorticoid receptor (hMR) (Homo sapiens, UniProt P08235)", "Readout": "pIC50", "Limit sign": "=", "Result value": 8.44}
{"Molecule": "Cc1c(C(=O)Nc2ccc(S(N)(=O)=O)c(Cl)c2)cc(C[C@H](C)O)n1-c1ccc(F)cc1Cl [Example 49]", "Assayed system": "human mineralocorticoid receptor (hMR) (Homo sapiens, UniProt P08235)", "Readout": "pIC50", "Limit sign": "=", "Result value": 8.08}
{"Molecule": "CCc1c(C(=O)Nc2ccc(S(C)(=O)=O)cc2)cc(C[C@H](C)O)n1-c1ccc(F)cc1Cl (single isomer, unassigned) [Example 44 - isomer B]", "Assayed system": "human mineralocorticoid receptor (hMR) (Homo sapiens, UniProt P08235)", "Readout": "pIC50", "Limit sign": "=", "Result value": 7.92}
